system: A-549 lung adenocarcinoma cell line; test: DIMSCAN cytotoxicity, fenretinide + L-threo-sphinganines 3:1 (Example B13); assay type: cell-based, human; details: 4-HPR 9 μM + L-threo-sphinganine 3 μM, 96 h
Short version: Fa (fraction affected) at least 0.5 is 1.0, less is 0.0.

CCCCCCCCCCCCCCCC[C@H](O)[C@@H](N)CO [C19, (2S,3S)-2-amino-1,3-nonadecanediol]: 0.0
CCCCCCCCCCCCCCC[C@H](O)[C@@H](N)CO [C18, (2S,3S)-2-amino-1,3-octadecanediol, reference compound]: 1.0
CCCCCCCCC[C@H](O)[C@@H](N)CO [C12]: 0.0

For this molecule, is measured Fa (fraction affected) 0.5 or higher? CCCCCCCCCCC[C@H](O)[C@@H](N)CO [C14]
0.0

For this molecule, is measured Fa (fraction affected) 0.5 or higher? CCCCCCCCCCCC[C@H](O)[C@@H](N)CO [C15]
0.0

====

system: CRL-2091 normal human fibroblast cell line; assay: DIMSCAN cytotoxicity, fenretinide + L-threo-sphinganines 3:1 (Example B1); assay type: cell-based; settings: CRL-2091, 20% O2; 4-HPR 3 μM + L-threo-sphinganine 1 μM; 96 h
The following molecules are shown together with reported CI (Combination Index) values.

As a guide, the following entries are already answered.
CCCCCCCCCCCCCCC[C@H](O)[C@@H](N)CO [C18, (2S,3S)-2-amino-1,3-octadecanediol, reference compound]: >1
CCCCCCCCCCCC[C@H](O)[C@@H](N)CO: >1
CCCCCCCCCCCCCC[C@H](O)[C@@H](N)CO: >1

Reported CI (Combination Index) ( `CCCCCCCCCCC[C@H](O)[C@@H](N)CO` ) = >1

Reported CI (Combination Index) ( `CCCCCCCCC[C@H](O)[C@@H](N)CO` ) = 0.76

====

system: OVCAR-8 ovarian adenocarcinoma cell line; experiment: DIMSCAN cytotoxicity, fenretinide + L-threo-sphinganines 3:1 (Example B15); type: cell-based, human; set-up: key: Chou-Talalay CI: <0.9 synergy, 0.9-1.1 additive, >1.1 antagonism; details: 4-HPR 3 μM + L-threo-sphinganine 1 μM, 96 h
MEASUREMENT TYPE: CI (Combination Index)
# output: bare number, no unit

As a guide, the following entries are already answered.
CCCCCCCCCCCC[C@H](O)[C@@H](N)CO [C15]: 0.1
CCCCCCCCCCCCCC[C@H](O)[C@@H](N)CO [C17, (2S,3S)-2-amino-1,3-heptadecanediol]: 0.4

Lab note: next compound to report on.
Reported CI (Combination Index) ( CCCCCCCCC[C@H](O)[C@@H](N)CO [C12] ) = 0.5

====

The following molecules are shown together with reported Fa (fraction affected) values.
test system: CRL-2091 normal human fibroblast cell line; assay: DIMSCAN cytotoxicity, fenretinide + L-threo-sphinganines 3:1 (Example B1); type: cell-based; settings: CRL-2091, 20% O2; 4-HPR 6 μM + L-threo-sphinganine 2 μM; 96 h

As a guide, the following entries are already answered.
CCCCCCCCCCCCCC[C@H](O)[C@@H](N)CO: 0.13
CCCCCCCCC[C@H](O)[C@@H](N)CO: 0.42
CCCCCCCCCCCCCCC[C@H](O)[C@@H](N)CO [C18, (2S,3S)-2-amino-1,3-octadecanediol, reference compound]: 0.29
CCCCCCCCCCCC[C@H](O)[C@@H](N)CO: 0.29

Reported Fa (fraction affected) ( `CCCCCCCCCCC[C@H](O)[C@@H](N)CO` ) = 0.21
